- test: Cytotoxicity against mouse Melan-a cells assessed as cell survival at 100 uM
- Format: cell-based
- testParameters: read-out: Survival
measurementType: viability at 100 µM (%)
Express the result in % but write the number alone.

> print(dat)
                                 smilesrepr  endpointresult
1  O=C(/C=C/c1ccc2c(c1)OCO2)OCc1cc(=O)c(O)co1            97.1

Proceed to the following item.
// query viability at 100 µM value for entry O=C(/C=C/c1ccc2c(c1)OCO2)OC(=O)/C=C/c1ccc2c(c1)OCO2 97.1

---

# IC50 per record follows
- target: Tyrosinase (Agaricus bisporus, UniProt O42713)
- Sequence (O42713 whole entry): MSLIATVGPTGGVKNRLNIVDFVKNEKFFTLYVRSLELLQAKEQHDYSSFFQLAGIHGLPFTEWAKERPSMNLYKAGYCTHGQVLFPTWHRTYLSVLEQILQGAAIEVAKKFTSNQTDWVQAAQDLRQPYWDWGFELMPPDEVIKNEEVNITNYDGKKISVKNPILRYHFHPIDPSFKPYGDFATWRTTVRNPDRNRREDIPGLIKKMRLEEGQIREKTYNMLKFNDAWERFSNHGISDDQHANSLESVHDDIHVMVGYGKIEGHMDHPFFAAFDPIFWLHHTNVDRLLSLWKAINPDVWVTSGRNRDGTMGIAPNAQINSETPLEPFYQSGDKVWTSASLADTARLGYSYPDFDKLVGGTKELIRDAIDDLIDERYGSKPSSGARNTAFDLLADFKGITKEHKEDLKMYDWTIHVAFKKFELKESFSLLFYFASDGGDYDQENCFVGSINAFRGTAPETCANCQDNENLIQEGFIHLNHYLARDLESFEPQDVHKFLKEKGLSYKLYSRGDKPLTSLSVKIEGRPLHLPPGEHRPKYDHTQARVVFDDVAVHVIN

> print(dat)
                                 smilesrepr  endpointresult
1  O=C(/C=C/c1ccc2c(c1)OCO2)Oc1coc(CO)cc1=O        > 200 µM
2  O=C(/C=C/c1ccc2c(c1)OCO2)OCc1cc(=O)c(OCc2cc(=O)c(O)co2)co1        > 100 µM
3  O=C(/C=C/c1ccc2c(c1)OCO2)OCc1cc(=O)c(O)co1         1.53 µM

// query IC50 value for entry O=C(/C=C/c1ccc2c(c1)OCO2)OC(=O)/C=C/c1ccc2c(c1)OCO2 > 100 µM

---

- test: Cytotoxicity against mouse Melan-a cells assessed as cell survival at 50 uM
- Format: cell-based
- testParameters: read-out: Survival
measurementType: viability at 50 µM (%)
Express the result in % but write the number alone.

// query viability at 50 µM value for entry O=C(/C=C/c1ccc2c(c1)OCO2)OCc1cc(=O)c(OCc2cc(=O)c(O)co2)co1 95.9
